Data provenance: patent US20170189507A1

Form field: peptide exchange yield (one value per entry).
- assay_target: HLA-A*24 (human)
- measurement_protocol: UV-ligand exchange ELISA

Worked cases, peptide exchange yield given:
{"binder": "RYPDNLKHL [peptide SEQ ID No 286]", "peptide exchange yield": "20 to 49%"}
{"binder": "LFIPSSKLLFL [peptide SEQ ID No 171]", "peptide exchange yield": "50 to 75%"}
{"binder": "RYSTGLAGNLL [peptide SEQ ID No 221]", "peptide exchange yield": "50 to 75%"}
{"binder": "DYTTWTALL [peptide SEQ ID No 165]", "peptide exchange yield": "> 75%"}
{"binder": "FFPPTRQMGLLF [peptide SEQ ID No 217]", "peptide exchange yield": "> 75%"}
{"binder": "YYKSTSSAF [peptide SEQ ID No 218]", "peptide exchange yield": "50 to 75%"}

# peptide exchange yield of IYQLDTASI [peptide SEQ ID No 182] = 50 to 75%

# peptide exchange yield of IFLDYEAGTLSF [peptide SEQ ID No 227] = > 75%
